Biological target: AKR1D1 (human steroid 5β-reductase) (Homo sapiens, UniProt P51857)
Sequence (P51857 whole entry): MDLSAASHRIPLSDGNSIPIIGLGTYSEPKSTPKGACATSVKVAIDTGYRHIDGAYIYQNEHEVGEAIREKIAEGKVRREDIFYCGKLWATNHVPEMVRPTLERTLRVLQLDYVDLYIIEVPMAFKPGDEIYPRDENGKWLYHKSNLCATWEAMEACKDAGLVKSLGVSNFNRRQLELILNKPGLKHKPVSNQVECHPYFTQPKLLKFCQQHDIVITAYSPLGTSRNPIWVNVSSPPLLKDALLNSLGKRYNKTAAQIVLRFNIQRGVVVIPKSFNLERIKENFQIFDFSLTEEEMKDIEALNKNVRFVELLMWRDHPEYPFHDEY
Assay: fluorescence titration
Format: binding
ENDPOINT_LABEL: Kd (nM)
// return numeric value only (unit: nM, not printed)

Which Kd is listed for CC(C)CCC[C@@H](C)[C@H]1CC[C@H]2[C@@H]3[C@H](O)CC4=CC(=O)CC[C@]4(C)[C@H]3CC[C@]12C [7α-hydroxycholestenone, 7α-hydroxy-4-cholesten-3-one] ?
1300

Which Kd is listed for CC(C)(C)NC(=O)[C@H]1CC[C@H]2[C@@H]3CC[C@H]4NC(=O)C=C[C@]4(C)[C@H]3CC[C@]12C [finasteride] ?
1140
